system: SNB-75; assay: NCI tumour cell line growth inhibition, 48 h
Calls of active or inactive are those of the source. Rule as the data show it: active = GI50 up to about 1.1 µM and inactive = higher.
Result category, one only: class 1 = active, class 0 = inactive

compound="COc1ccc(CN(Cc2ccc(OC)cc2)C(=O)CC2(O)CCc3ccccc3C2)cc1 (stereo not given)" category="class 0"
compound=O=C(O)CN1CCN(CC(=O)O)CCN(CC(=O)O)CC1 category="class 0"
compound=CN(Cc1cnc2nc(N)nc(N)c2n1)c1ccc(C(=O)NC23CC4CC(CC(C4)C2)C3)cc1 category="class 0"
compound=Nc1ccc(S(=O)(=O)Nc2ccc(Nc3c4ccccc4nc4ccccc34)cc2)cc1 category="class 1"
compound=N#CC(C#N)[C@@H]1CCC=C(Sc2ccccc2)[C@H]1Sc1ccccc1 category="class 0"

Called result for Cc1nc2sc3ccccc3n2c(=O)c1/N=N/c1ccc(Br)cc1 class 0

Called result for CC1=C2CC[C@@]3(C)C(=CCC3O)C2(C)CCC1=O (stereo not given in full) class 0
